Each recorded value in this set is attributed to patent US11331369B2.

assay: Canine pharmacokinetic (PK) study, single IV or oral dose; conditions: dog, in vivo, po, 1 mg/kg
Can you tell me Cmax for the items I'm about to list?
Respond numerically; units are ng/mL and should not be typed.

// returns reported Cmax for input CC(C)C[C@H]1C(=O)O[C@H](Cc2ccc(Cn3nc(C(F)(F)F)cc3C(F)(F)F)cc2)C(=O)N(C)[C@@H](CC(C)C)C(=O)O[C@H](C)C(=O)N(C)[C@@H](CC(C)C)C(=O)O[C@H](Cc2ccc(Cn3nc(C(F)(F)F)cc3C(F)(F)F)cc2)C(=O)N(C)[C@@H](CC(C)C)C(=O)O[C@H](C)C(=O)N1C 5

Repeat for the following compound: CC(C)C[C@H]1C(=O)O[C@H](Cc2ccc(CN3CCOc4ccccc43)cc2)C(=O)N(C)[C@@H](CC(C)C)C(=O)O[C@H](C)C(=O)N(C)[C@@H](CC(C)C)C(=O)O[C@H](Cc2ccc(CN3CCOc4ccccc43)cc2)C(=O)N(C)[C@@H](CC(C)C)C(=O)O[C@H](C)C(=O)N1C 71

Repeat for the following compound: CC(C)C[C@H]1C(=O)O[C@H](Cc2ccc(Cn3ccc(-c4ccccc4)n3)cc2)C(=O)N(C)[C@@H](CC(C)C)C(=O)O[C@H](C)C(=O)N(C)[C@@H](CC(C)C)C(=O)O[C@H](Cc2ccc(Cn3ccc(-c4ccccc4)n3)cc2)C(=O)N(C)[C@@H](CC(C)C)C(=O)O[C@H](C)C(=O)N1C 39

Repeat for the following compound: CCOc1cnn(Cc2ccc(C[C@H]3OC(=O)[C@H](CC(C)C)N(C)C(=O)[C@@H](C)OC(=O)[C@H](CC(C)C)N(C)C(=O)[C@@H](Cc4ccc(Cn5cc(OCC)cn5)cc4)OC(=O)[C@H](CC(C)C)N(C)C(=O)[C@@H](C)OC(=O)[C@H](CC(C)C)N(C)C3=O)cc2)c1 145

Repeat for the following compound: CC(C)C[C@H]1C(=O)O[C@H](Cc2ccc(Cn3ccc(C(F)(F)F)n3)cc2)C(=O)N(C)[C@@H](CC(C)C)C(=O)O[C@H](C)C(=O)N(C)[C@@H](CC(C)C)C(=O)O[C@H](Cc2ccc(Cn3ccc(C(F)(F)F)n3)cc2)C(=O)N(C)[C@@H](CC(C)C)C(=O)O[C@H](C)C(=O)N1C 27

Repeat for the following compound: CC(C)C[C@H]1C(=O)O[C@H](Cc2ccc(Cn3nc(C4CC4)cc3C3CC3)cc2)C(=O)N(C)[C@@H](CC(C)C)C(=O)O[C@H](C)C(=O)N(C)[C@@H](CC(C)C)C(=O)O[C@H](Cc2ccc(Cn3nc(C4CC4)cc3C3CC3)cc2)C(=O)N(C)[C@@H](CC(C)C)C(=O)O[C@H](C)C(=O)N1C 111

Repeat for the following compound: CC(C)C[C@H]1C(=O)O[C@H](Cc2ccc(Cn3cc(OC(C)C)cn3)cc2)C(=O)N(C)[C@@H](CC(C)C)C(=O)O[C@H](C)C(=O)N(C)[C@@H](CC(C)C)C(=O)O[C@H](Cc2ccc(Cn3cc(OC(C)C)cn3)cc2)C(=O)N(C)[C@@H](CC(C)C)C(=O)O[C@H](C)C(=O)N1C 267
